Biological target: IDE (Homo sapiens)
Construct: made in house; host or cells: bacteria
Sequence (P14735 whole entry): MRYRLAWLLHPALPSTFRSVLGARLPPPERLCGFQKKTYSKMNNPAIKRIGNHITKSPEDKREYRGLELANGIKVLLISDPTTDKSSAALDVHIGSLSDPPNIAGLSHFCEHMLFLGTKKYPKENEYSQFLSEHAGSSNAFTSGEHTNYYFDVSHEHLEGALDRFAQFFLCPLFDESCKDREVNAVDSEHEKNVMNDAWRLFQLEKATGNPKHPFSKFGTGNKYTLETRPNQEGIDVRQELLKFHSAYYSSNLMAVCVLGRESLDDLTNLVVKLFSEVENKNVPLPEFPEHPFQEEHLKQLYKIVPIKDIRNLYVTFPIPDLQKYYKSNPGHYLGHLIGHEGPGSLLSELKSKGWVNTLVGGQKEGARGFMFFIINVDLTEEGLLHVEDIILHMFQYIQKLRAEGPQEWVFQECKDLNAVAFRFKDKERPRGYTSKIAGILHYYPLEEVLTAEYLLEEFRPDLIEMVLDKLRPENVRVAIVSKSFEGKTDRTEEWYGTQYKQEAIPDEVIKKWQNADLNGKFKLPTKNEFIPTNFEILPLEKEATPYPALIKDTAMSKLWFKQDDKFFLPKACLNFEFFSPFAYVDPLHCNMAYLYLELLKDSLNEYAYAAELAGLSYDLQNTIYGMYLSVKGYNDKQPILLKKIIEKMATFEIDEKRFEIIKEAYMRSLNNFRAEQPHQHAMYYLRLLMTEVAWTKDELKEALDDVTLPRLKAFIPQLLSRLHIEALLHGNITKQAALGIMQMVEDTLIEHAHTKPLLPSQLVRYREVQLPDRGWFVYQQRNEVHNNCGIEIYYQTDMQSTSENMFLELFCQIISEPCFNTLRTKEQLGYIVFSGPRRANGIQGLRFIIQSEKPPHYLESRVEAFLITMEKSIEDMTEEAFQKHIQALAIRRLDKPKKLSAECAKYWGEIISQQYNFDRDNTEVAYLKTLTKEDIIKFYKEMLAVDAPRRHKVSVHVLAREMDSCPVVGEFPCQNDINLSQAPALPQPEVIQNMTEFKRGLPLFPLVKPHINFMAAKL
Experiment: Vulnerability of peptides to degradation by IDE: 0 vs 4 h pre-incubation, then FRET1 assay
Assay type: biochemical
Settings: 4 h, 4-hr incubation; Cmpd 125 uM; relative to DMSO-only controls; individual runs; read-out: Percent Activity (normalized initial velocity of FRET1 hydrolysis)
Ends that are not written are not given here.
result.type: remaining activity at 125 µM (%)

substance="QSLPWCYP-NH2 [P12-3B]" unit_abbreviation=% measurement=60.2
substance="Ac-FRQWWQPS [P12-1C]" unit_abbreviation=% measurement=24.3
substance="WSPISGKFFQRF-NH2 [P12-4A]" unit_abbreviation=% measurement=51.3
substance="VHWDFRQWWQPS [P12-1]" unit_abbreviation=% measurement=10
substance="VHWDFRQWWQPS-NH2 [P12-1A]" unit_abbreviation=% measurement=12.7

P. VHWDFRQW-NH2 [P12-1B]
Q. WSPISGKFFQRF [P12-4]
## Input Task for the reader: decide whether P or Q has the larger remaining activity at 125 µM. // output: label of the selected item
## Output Q
